molecules and their reported viability, T/C
Test system: 299254-011-R-J1-PDC complex spheroids viability;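 further: spheroids exposed to the agents for seven days before readout; percent viability relative to DMSO vehicle control wells = 100%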
Protocol description: Anticancer human tumor 299254-011-R-J1-PDC patient-derived melanoma cell line growth inhibition [GQUAD]
Measurement setup: second compound 10 µM; first compound 10 µM; active compounds read low
Assay metric: viability, T/C (%)

INSERT INTO results (molecule, readout_value) VALUES
  ('CC1COCCN1c1cc(C2(O)CC3CCC(C2)O3)c2cnn(-c3ccn[nH]3)c2n1 (stereo not given) + CN(C)c1ccc(Nc2c3ccc(NC(=O)CCN4CCCC4)cc3nc3cc(NC(=O)CCN4CCCC4)ccc23)cc1', 7.27),
  ('COc1cc(C2c3cc4c(cc3C(OC3OC5COC(C)OC5C(O)C3O)C3COC(=O)C23)OCO4)cc(OC)c1O (stereo not given) + Cc1[nH]c2ccc(F)cc2c1-c1nc2c3cccnc3c3ncccc3c2[nH]1', 56.5),
  ('C#Cc1c(F)ccc2cc(O)cc(-c3ncc4c(N5CC6CCC(C5)N6)nc(OCC56CCCN5CC(F)C6)nc4c3F)c12 (stereo not given) + Cc1cnc(CNC(=O)c2c(=O)c3ccc(N4CCCN(C)CC4)nc3n3c2sc2ccccc23)cn1', 0.39),
  ('COc1ccc([C@@H](O)c2cc(-c3ncnc4cc(N5CCOCC5)ccc34)c(F)cc2Cl)nn1 + CN(C)c1ccc(Nc2c3ccc(NC(=O)CCN4CCCC4)cc3nc3cc(NC(=O)CCN4CCCC4)ccc23)cc1', 50.8),
  ('O=C(c1cc(Cc2n[nH]c(=O)c3ccccc23)ccc1F)N1CCN(C(=O)C2CC2)CC1 + CN(C)c1ccc(Nc2c3ccc(NC(=O)CCN4CCCC4)cc3nc3cc(NC(=O)CCN4CCCC4)ccc23)cc1', 95);

Source listed as PubChem BioAssay AID2060513.
